test system: OVCAR-4 ovarian; assay: NCI tumour cell line growth inhibition, 48 h; in the data active = GI50 below about 0.43 µM; inactive = the rest
Tick one outcome: active, inactive

Tell me the assay call for NC1=NC(c2ccc(F)cc2)C2=C(N1)c1ccc3ccccc3c1OCC2 (centres undefined) please.
inactive

Queued: COc1cc(-c2n/c(=C\c3c(O)[nH]c4ccccc34)cc3c2=Nc2ccccc2-3)cc(OC)c1OC
inactive

Queued: Cc1ccc2[nH]c(C(=O)NN3C(=O)C(C)SC34CCCCC4C)c(-c3ccccc3)c2c1 (centres undefined)
inactive

Queued: COc1ccc2[nH]cc(-c3nc(-c4c[nH]c5ccncc45)cs3)c2c1
inactive

Queued: CCCCCCN1CCN(Cc2ccc(N(CC)CC)cc2)C(=O)C1=O
inactive

Queued: CC1(C)Cc2c(Br)c(Br)c(Br)c(OCC(O)CN3CCOCC3)c2O1 (centres undefined)
inactive

Queued: COc1cc2c3c(n(CCCNCCNCCCN)c(=O)c2cc1OC)-c1cc2c(cc1C3=O)OCO2
inactive

Queued: COc1ccc(-c2ccccc2)cc1-c1c(Nc2cc(Cl)cc(Cl)c2O)c(=O)c1=O
inactive

Queued: CN(C)CC(NC(NCS)C(=O)NCCNc1ccc(NCCNC(=O)C(NCS)NC(CN(C)C)OCCl)c2c1C(=O)c1c(O)ccc(O)c1C2=O)OCCl (centres undefined)
active

###

system: SK-MEL-28 melanoma; experiment: NCI tumour cell line growth inhibition, 48 h; in the data active = GI50 below about 0.43 µM; inactive = the rest
Tick one outcome: active, inactive

Tell me the assay call for N/C(=N\c1nc2ccccc2s1)NC(=O)Nc1cccc2ccccc12 please.
inactive

Queued: Cc1cn2c(=O)n(c1=O)Cc1ccccc1C2
inactive

Queued: COc1ccc(C2=C(c3cc(OC)c(OC)c(OC)c3)C(=O)OC2)cc1OC
inactive

Queued: COc1ccc(-c2cc(-c3nnc(SCC(=O)Nc4ccc(C(C)=O)cc4)o3)c3ccccc3n2)cc1
inactive

Queued: Cc1cc(C)c2c(N)c3cccc(C)c3nc2n1
inactive

Queued: O=C1CC/C(=C\COc2ccc3ccc(=O)oc3c2)O1
inactive

Queued: CCC(=O)c1ccc2c(c1)N(CCCN1CCN(CCO)CC1)c1ccccc1S2
inactive

Queued: COc1ccc(-c2ccccc2)cc1-c1c(Nc2cc(Cl)cc(Cl)c2O)c(=O)c1=O
inactive

Queued: COc1cc2c3c(n(C)c(=O)c2cc1OC)-c1cc2c(cc1/C3=C/[C@H](N)CCCCN)OCO2
inactive

Queued: CCOC(=O)C1=C(c2ccccc2)N(c2ccc(OC)cc2)[C@]2(C#N)C(O)=C(Cl)C(Cl)=C(O)[C@]12C#N
inactive

Queued: Cc1ccc(C[P+](c2ccccc2)(c2ccccc2)c2ccccc2)cc1
inactive

Queued: Cc1cc(NC(=O)NC(=O)c2ccccc2NC(=O)CN)ccc1Oc1ncc(Br)cn1
active

Queued: CN1C(=O)C(c2c[nH]c3ccccc23)=C(c2c(-c3c[nH]c4ccccc34)[nH]c3ccccc23)C1=O
inactive

Queued: Oc1cc(Cl)ccc1Cc1ccc(Cl)cc1O
inactive

Queued: N=C(N)c1ccc(-c2ccc(-c3ccc(F)cc3)o2)o1
inactive

###

system: A549 NSCLC; experiment: NCI tumour cell line growth inhibition, 48 h
assay-readout: TGI

Record request: TGI value, item c1ccc(Nc2nnc(-c3nsc4ccccc34)o2)cc1
> 100 µM

Queued: O=C(O)c1ccc(Nc2nc3ccccc3nc2C(=O)O)cc1
> 100 µM

Queued: Oc1cc(Cl)ccc1Cc1ccc(Cl)cc1O
41.1 µM

Data provenance: PubChem BioAssay (NCI)
